SPOT intensity by entry:
Molecular target: T1, Pin3, Q06449
T1 sequence (Q06449 53-122, looked up): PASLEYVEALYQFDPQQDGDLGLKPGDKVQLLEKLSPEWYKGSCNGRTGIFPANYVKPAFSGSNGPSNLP
Assay: SPOT array
Settings: median of control spots 2171
Property: SPOT intensity

- Binder: "VYTRTAFQIPGDDKI"
  Experimental value: 29
- Binder: "RRASLFPRDPKRLRP"
  Experimental value: 11
- Binder: "NNFYRPLLRSVLVLL"
  Experimental value: 5
- Binder: "VGFRLALKFPSRITG"
  Experimental value: 150
- Binder: "GERSRPLVISILSSA"
  Experimental value: 26
- Binder: "KDKKTKPTPPPKPSH"
  Experimental value: 0
- Binder: "HGKRRAPLLLAKLDV"
  Experimental value: 9
